System: Zika virus NS2B-NS3 protease (unlinked)
Assay: Optimization of GU AMC qHTS for Zika virus inhibitors: Unlinked NS2B-NS3 protease assay (AID 1347151); further: nearly all actives have a fitted effect of over 80% in size
Details: recombinant ZIKV NS2B-NS3 protease, fluorogenic AMC substrate; series mostly up to 52.5 µM
Records with an inconclusive call do not appear. Activity calls are given as the source filed them. The call rests on the fitted dose curve; in most records, active means well fitted inhibition curve with a large enough effect; inconclusive means small, poorly fitted or top-dose-only effect; inactive means no such curve, though single readings can be large or run the other way.
Bench note: report the call from active, inactive

These recorded examples may help you get a feel for the data.
[
  {
    "COMPOUND": "CN(CC[C@@H](Oc1ccc(C(F)(F)F)cc1)c1ccccc1)CC(=O)O",
    "DISCRETE_LABEL": "inactive"
  },
  {
    "COMPOUND": "COc1cc(/C=C(\\C#N)C(=O)Nc2nnc(C(F)(F)F)s2)ccc1OCc1ccc(C(F)(F)F)cc1C(F)(F)F",
    "DISCRETE_LABEL": "active"
  },
  {
    "COMPOUND": "C=C(C)C1CC=C(C(=O)O)CC1 (stereo unspecified)",
    "DISCRETE_LABEL": "inactive"
  },
  {
    "COMPOUND": "O=c1[nH]c2ccccc2c2ccccc12",
    "DISCRETE_LABEL": "active"
  },
  {
    "COMPOUND": "CC(O)C(O)[C@H]1CNc2nc(N)[nH]c(=O)c2N1 (stereo partly specified)",
    "DISCRETE_LABEL": "active"
  }
]

Query block: Lab log entry: "COc1ccccc1N1CCN(CCCCNC(=O)c2ccc3ccccc3c2)CC1" — outcome as called in the assay?
Result block: inactive

Query block: What did this assay record as the result for "O=S(=O)(c1cccc2c(Cl)cccc12)N1CCCNCC1" ?
Result block: inactive

Query block: Recorded call for "CN[C@H](CC(=O)O)C(=O)O" ?
Result block: inactive

Query block: Record request — test call for "O=C(OCCN1CCOCC1)C1(c2ccccc2)CCCCC1"
Result block: inactive

Query block: What call does the record list for COc1cc([C@@H]2c3cc4c(cc3[C@H](O)C3COC(=O)[C@@H]32)OCO4)cc(OC)c1OC (stereo partly specified) ?
Result block: inactive

Query block: Dear all, I need the recorded test outcome for "C[C@](Cc1ccc(O)c(O)c1)(NN)C(=O)O" , thank you.
Result block: inactive
